# measured target: human CRTH2 (Homo sapiens)
# Construct: expressed in transfected cells; host or cells: HEK293 cells, stably transfected; membrane preparation
# Sequence (Q9Y5Y4 whole entry): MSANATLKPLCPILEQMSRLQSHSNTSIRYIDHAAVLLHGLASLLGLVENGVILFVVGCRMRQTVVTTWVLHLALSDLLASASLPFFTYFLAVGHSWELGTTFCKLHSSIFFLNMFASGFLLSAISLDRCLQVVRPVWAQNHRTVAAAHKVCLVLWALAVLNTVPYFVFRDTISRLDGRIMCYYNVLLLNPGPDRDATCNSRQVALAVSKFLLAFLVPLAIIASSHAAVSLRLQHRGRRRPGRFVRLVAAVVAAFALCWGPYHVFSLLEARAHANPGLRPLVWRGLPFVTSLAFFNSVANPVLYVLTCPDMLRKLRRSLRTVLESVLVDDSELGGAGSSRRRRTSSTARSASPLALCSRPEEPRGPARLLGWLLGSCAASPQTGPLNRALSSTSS
# experimental details: Human CRTH2 binding assay (3H-labeled PGD2 binding, membranes of HEK293 cells transfected with human CRTH2)
# stated conditions: membrane preparation of HEK293 cells with human CRTH2; 2 nM 3H-labeled PGD2; 4° C., 120 minutes; read-out: IC50 (nM), in vitro human CRTH2 binding assay
metric name: IC50 (nM)

Recorded IC50, per entry:
1. O=C(O)COc1cccc(CCCN2C(=O)OC[C@@H]2C(c2ccccc2)c2ccccc2)c1 = 5.5
2. O=C(O)Cn1ccc2c(CCCn3cc(C(c4ccccc4)c4ccccc4)ccc3=O)cccc21 = 3.6
3. O=C(O)CCCOc1cccc(SCCn2cc(C(c3ccccc3)c3ccccc3)ccc2=O)c1 = 8.1
4. O=C(O)CCCOc1cccc(CCCn2nc(C(c3ccc(F)cc3)c3ccc(F)cc3)ccc2=O)c1 = 18
5. O=C(O)CCCOc1cccc(CCCn2nc(C(c3ccccc3)c3ccccc3)ccc2=O)c1 = 14

a: NS(=O)(=O)c1cccc(C(=O)N(CCCc2cccc(OCC(=O)O)c2)CCC(c2ccccc2)c2ccccc2)c1
b: O=C(O)COc1cccc(CCCn2cc(C(c3ccccc3)c3ccccc3)ccc2=O)c1
c: O=C(O)COc1cccc(CCCn2cc(-c3ccccc3-c3cccc4ccccc34)ccc2=O)c1
d: C[C@H](Oc1cccc(CCCn2nc(C(c3ccccc3)c3ccccc3)ccc2=O)c1)C(=O)O
e: O=C(O)CCCOc1cccc(CCCn2cc(C(c3ccc(F)cc3)c3ccc(F)cc3)ccc2=O)c1
Problem: Which order do these items take when sorted by rising IC50? List them. Answer format: the labels, in the requested order.
Result: a, c, d, e, b
(a: 4.8 nM, c: 7.6 nM, d: 13 nM, e: 24 nM, b: 42 nM)

Where do the numbers come from? From patent US8273745B2.
